Details: 345.15 K; 101.33 kPa; Liquid; Vibrating tube method
Observed Property: mass density (kg/m3)

> print(dat)
                                   molecule  observed.property  unit.info  numeric.value
1  OCC(F)(F)C(F)(F)C(F)(F)C(F)(F)C(F)(F)F [2,2,3,3,4,4,5,5,6,6,6-undecafluorohexan-1-ol]       mass density      kg/m3        1610.41
2  OCC(F)(F)C(F)(F)F [2,2,3,3,3-pentafluoropropanol]       mass density      kg/m3        1406.43
3  OCC(F)(F)C(F)(F)C(F)(F)F [2,2,3,3,4,4,4-heptafluorobutanol]       mass density      kg/m3        1494.29
4  OCC(F)(F)C(F)(F)C(F)(F)C(F)(F)F [2,2,3,3,4,4,5,5,5-nonafluoropentan-1-ol]       mass density      kg/m3        1552.11
